- Study System: Cathepsin D (Homo sapiens)
- Sequence (P07339 65-162 limits assumed): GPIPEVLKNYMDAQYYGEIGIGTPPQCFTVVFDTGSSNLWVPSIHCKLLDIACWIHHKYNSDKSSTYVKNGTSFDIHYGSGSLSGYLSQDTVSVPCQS
- Sequence (P07339 169-412 limits assumed): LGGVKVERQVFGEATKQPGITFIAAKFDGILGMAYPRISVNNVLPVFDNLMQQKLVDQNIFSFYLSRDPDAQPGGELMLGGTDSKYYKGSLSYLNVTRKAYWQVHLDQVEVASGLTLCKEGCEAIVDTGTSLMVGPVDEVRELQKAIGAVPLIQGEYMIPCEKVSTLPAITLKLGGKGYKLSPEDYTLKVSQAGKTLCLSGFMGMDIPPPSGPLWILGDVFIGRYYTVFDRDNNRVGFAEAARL
Assay Endpoint: pKi
Answers are plain numbers, as −log10 of the molar value.

The value of pKi measured for the compound CC(C)[C@H](NC(=O)c1ccccn1)C(=O)N[C@@H](COCc1ccc(Br)cc1)[C@@H](O)CC(=O)NCC1CCCCC1 turned out to be 6.23

----------
- Study System: Plasmepsin II (Plasmodium falciparum (isolate HB3))
- Sequence (P46925 whole entry): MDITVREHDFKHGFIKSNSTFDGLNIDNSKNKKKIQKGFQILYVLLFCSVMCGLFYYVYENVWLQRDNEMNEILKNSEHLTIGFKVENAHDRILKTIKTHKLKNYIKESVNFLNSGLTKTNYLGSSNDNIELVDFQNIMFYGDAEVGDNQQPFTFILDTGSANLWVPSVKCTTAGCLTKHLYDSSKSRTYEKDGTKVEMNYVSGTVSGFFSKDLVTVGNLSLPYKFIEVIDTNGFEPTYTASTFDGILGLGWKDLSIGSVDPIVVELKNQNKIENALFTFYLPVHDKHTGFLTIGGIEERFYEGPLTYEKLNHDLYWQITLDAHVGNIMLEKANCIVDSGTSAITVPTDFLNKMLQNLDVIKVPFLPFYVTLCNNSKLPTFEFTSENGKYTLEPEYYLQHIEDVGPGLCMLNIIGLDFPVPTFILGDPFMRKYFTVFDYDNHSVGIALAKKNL
- Protocol Text: Enzyme Inhibition Measurements
- Cond: pH 4.5; 22 °C
Assay Endpoint: pKi
Give bare numbers, as −log10 of the molar value.

The value of pKi measured for the molecule CC(C)[C@H](NC(=O)c1ccccn1)C(=O)N[C@@H](COCc1ccc(Br)cc1)[C@@H](O)CC(=O)NCC1CCCCC1 turned out to be 7.39
